Tested target: Human fibrinogen receptor (αIIbβ3) (Homo sapiens, UniProt P05106+P08514)
Construct: purified from outdated platelets; from tissue; host or cells: outdated platelets (human)
Sequence (P08514 32-887 limits assumed, one chain of several): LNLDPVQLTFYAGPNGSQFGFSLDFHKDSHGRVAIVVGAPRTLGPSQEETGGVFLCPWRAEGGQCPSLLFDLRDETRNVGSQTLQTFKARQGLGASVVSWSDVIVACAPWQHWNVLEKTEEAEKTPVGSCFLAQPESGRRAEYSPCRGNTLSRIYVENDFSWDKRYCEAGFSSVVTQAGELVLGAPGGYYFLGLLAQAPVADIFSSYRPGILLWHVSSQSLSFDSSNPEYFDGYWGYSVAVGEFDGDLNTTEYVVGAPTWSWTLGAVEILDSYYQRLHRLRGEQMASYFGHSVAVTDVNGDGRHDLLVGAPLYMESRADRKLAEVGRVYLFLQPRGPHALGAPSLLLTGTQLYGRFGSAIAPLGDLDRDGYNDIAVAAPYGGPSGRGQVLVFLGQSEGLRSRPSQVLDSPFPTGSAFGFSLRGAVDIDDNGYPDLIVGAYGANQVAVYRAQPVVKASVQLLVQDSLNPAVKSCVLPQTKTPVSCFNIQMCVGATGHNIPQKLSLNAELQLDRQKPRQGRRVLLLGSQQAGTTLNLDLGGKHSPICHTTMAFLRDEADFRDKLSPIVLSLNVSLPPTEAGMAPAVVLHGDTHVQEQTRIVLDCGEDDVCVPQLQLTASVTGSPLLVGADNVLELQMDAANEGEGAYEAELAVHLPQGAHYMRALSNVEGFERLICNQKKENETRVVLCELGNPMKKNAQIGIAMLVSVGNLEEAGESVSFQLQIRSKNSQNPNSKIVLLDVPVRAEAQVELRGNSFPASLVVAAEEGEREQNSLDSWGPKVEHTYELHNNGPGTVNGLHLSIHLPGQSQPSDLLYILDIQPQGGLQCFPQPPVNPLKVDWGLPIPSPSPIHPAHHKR
Sequence (P08514 891-1039 limits assumed, one chain of several): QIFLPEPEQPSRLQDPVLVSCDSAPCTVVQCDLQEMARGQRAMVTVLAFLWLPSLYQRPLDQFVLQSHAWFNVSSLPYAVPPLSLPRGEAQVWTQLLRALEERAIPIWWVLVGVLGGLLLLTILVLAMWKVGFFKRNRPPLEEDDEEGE
Test protocol: Purified IIb/IIIa receptor assay (solid phase receptor assay)
Condition info: inhibition of 50% of maximum binding of biotinylated vitronectin; highest concentration tested 1.0×10^-4 M
Counter-ions that a name gives are not always drawn.
Property name: IC50
Quote the value and follow it with the unit of measurement.

Which value of IC50 has been reported for N=C(N)Nc1cccc(C(=O)Nc2ccc(C(CC(=O)O)C(=O)O)cc2)c1 (stereo not drawn) [Example 69, trifluoroacetate Salt] in the records?
37 nM

Another molecule: CC(C)(C)CC(=O)NC(Cc1ccc(NC(=O)c2cc(NC(=N)N)cc(C(F)(F)F)c2)cc1)C(=O)O (stereo not drawn) [Example 110, trifluoroacetate Salt]
326 nM

Let us now turn to COc1cc(NC(=O)c2cccc(NC(=N)N)c2)ccc1CC(NC(=O)OC(C)C)C(=O)O (stereo not drawn) [Example 113, trifluoroacetate salt, monohydrate]
253 nM

* * *

Tested target: Human vitronectin receptor(αvβ3) (Homo sapiens, UniProt P05106+P06756)
Construct: purified from human placenta
Sequence (P06756 31-889 limits assumed): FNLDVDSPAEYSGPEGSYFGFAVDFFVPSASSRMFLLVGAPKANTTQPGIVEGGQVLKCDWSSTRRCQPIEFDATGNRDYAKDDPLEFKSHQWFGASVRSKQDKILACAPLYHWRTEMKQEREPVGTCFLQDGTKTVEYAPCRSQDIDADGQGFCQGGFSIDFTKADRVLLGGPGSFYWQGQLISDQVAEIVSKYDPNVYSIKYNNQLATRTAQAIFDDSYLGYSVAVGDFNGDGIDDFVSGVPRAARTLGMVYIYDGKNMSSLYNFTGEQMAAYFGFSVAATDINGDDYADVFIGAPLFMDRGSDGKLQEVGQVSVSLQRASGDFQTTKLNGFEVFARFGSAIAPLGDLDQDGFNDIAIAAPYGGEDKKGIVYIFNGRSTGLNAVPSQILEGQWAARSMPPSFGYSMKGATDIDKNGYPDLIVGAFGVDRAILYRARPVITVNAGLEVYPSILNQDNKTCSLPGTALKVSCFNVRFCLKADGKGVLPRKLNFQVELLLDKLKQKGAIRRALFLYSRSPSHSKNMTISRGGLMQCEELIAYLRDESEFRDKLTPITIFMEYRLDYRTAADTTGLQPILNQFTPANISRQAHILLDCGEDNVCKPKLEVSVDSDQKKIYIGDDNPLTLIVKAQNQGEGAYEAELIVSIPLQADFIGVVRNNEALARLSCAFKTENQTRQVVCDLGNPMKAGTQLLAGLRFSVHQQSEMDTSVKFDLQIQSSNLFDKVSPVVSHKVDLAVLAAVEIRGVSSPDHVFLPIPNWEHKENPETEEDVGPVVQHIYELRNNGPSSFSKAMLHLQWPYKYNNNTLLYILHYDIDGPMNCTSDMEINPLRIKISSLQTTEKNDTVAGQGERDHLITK
Sequence (P06756 891-1048 limits assumed): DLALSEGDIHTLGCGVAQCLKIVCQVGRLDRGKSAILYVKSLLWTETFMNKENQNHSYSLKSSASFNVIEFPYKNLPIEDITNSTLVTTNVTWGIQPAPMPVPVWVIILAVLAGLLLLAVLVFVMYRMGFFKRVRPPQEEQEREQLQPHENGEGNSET
Sequence (P05106 27-788): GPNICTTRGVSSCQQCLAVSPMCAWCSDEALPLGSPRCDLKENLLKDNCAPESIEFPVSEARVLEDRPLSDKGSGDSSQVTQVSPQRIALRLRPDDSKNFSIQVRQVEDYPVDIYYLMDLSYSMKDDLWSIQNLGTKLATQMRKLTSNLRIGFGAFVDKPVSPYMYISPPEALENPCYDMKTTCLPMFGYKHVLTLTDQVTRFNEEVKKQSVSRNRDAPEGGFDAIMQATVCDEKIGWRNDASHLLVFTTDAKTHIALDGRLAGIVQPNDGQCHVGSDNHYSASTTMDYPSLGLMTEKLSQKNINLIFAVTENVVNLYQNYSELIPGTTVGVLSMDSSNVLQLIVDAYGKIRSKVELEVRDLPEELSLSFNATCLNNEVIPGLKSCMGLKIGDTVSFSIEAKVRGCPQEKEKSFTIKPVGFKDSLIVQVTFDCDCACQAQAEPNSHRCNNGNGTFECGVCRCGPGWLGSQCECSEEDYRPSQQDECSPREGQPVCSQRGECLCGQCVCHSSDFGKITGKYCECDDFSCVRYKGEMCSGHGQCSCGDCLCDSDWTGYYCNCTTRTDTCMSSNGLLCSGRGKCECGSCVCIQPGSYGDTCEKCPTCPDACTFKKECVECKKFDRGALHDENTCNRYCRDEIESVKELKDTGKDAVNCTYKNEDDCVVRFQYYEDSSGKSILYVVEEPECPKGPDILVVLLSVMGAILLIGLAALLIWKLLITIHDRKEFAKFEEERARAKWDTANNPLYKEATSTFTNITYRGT
Test protocol: Vitronectin adhesion assay (solid phase receptor assay, αvβ3)
Condition info: inhibition of 50% of maximum binding of biotinylated vitronectin; highest concentration tested 1.0×10^-4 M; read-out: AvB3 IC50
Experimental: The activity of the compounds of the present invention was tested in the following assays. […] Assay buffer, OPD substrate tablets, and RIA grade BSA were obtained from Sigma (St. Louis, Mo.). Anti-biotin antibody was obtained from Calbiochem (La Jolla, Calif.). Linbro microtiter plates were obtained from Flow Labs (McLean, Va.). […] The data were analyzed using a macro written for use with the EXCEL™ spreadsheet program. The mean, standard deviation, and % CV were determined for duplicate concentrations. […]
Counter-ions that a name gives are not always drawn.
Exam item: assign YES to entries whose IC50 is below 10 nM and NO to entries at or above 10 nM. Note that a value of exactly 10 nM receives NO.

I wonder whether CC(C)OC(=O)NC(Cc1ccc(NC(=O)c2cccc(C(=O)NC(=N)N)c2)cc1)C(=O)O (centres unmarked) [Example 128, trifluoroacetate Salt] has IC50 below 10 nM. Can you tell?
NO

Moving on to the next molecule: N=C(N)Nc1cccc(C(=O)Nc2ccc(OCC(=O)O)cc2)c1 [Example 81, trifluoroacetate Salt]
NO

N=C(N)Nc1cccc(C(=O)Nc2ccc(CCC(=O)O)c(CCC(=O)O)c2)c1 [Example 100, trifluoroacetate Salt] ?
YES

Now try CCOC(=O)C(Cc1ccc(NC(=O)c2cccc(NC(=N)N)c2)cc1)NS(=O)(=O)c1ccccc1 (centres unmarked) [Example 40, monohydrate trifluoroacetate Salt] .
NO

Moving on to the next molecule: CC(CC(=O)OC(C)(C)C)c1ccc(NC(=O)c2cccc(NC(=N)N)c2)cc1 (centres unmarked) [Example 30, trifluoroacetate Salt]
NO

Then what about the molecule CC(=O)NC(Cc1ccc(NC(=O)c2cccc(NC(=N)N)c2)cc1)C(=O)O (centres unmarked) [Example 35, trifluoroacetate Salt] ?
YES

Next: CCCCS(=O)(=O)NC(Cc1ccc(OCc2cccc(NC(=N)N)c2)cc1)C(=O)O (centres unmarked) [Example 11, trifluoroacetate Salt monohydrate]
YES

Please answer likewise for CCC(Cc1ccc(NC(=O)c2cccc(NC(=N)N)c2)cc1)C(=O)O (centres unmarked) [Example 129, trifluoroacetate Salt]
NO

Also check N=C(N)Nc1cccc(C(=O)Nc2ccc(C(CC(=O)O)C(=O)O)cc2)c1 (centres unmarked) [Example 69, trifluoroacetate Salt]
NO

Also need COc1cc(NC(=O)c2cccc(NC(=N)N)c2)ccc1OCC(=O)O [Example 118, trifluoroacetate Salt] , thanks.
YES

Now try N=C(N)c1cccc(C(=O)Nc2ccc(CCC(=O)O)cc2)c1 [Example 20] .
NO

Follow-up entry: CC(C)COC(=O)NC(Cc1ccc(NC(=O)c2cc(NC(=N)N)cc(C(F)(F)F)c2)cc1)C(=O)O (centres unmarked) [Example 2, trifluoroacetate Salt]
YES

Again, but for CC(C)OC(=O)NC(Cc1ccc(NC(=O)c2ccc(Cl)c(NC(=N)N)c2)cc1)C(=O)O (centres unmarked) [Example 87]
YES

Same question, N=C(N)Nc1cccc(C(=O)Nc2ccc(S(=O)(=O)CC(=O)O)cc2)c1 [Example 83] this time
NO

Try the molecule CC(C)(C)NC(=O)NC(Cc1ccc(NC(=O)c2cccc(NC(=N)N)c2)cc1)C(=O)O (centres unmarked) [Example 124, trifluoroacetate Salt]
YES

Lookup N=C(N)Nc1cccc(C(=O)Nc2ccc(CC(NS(=O)(=O)/C=C/c3ccccc3)C(=O)O)cc2)c1 (centres unmarked) [Example 123, trifluoroacetate Salt]
YES

Please answer likewise for CCOC(=O)CSc1ccc(NC(=O)c2cccc(NC(=N)N)c2)cc1 [Example 90, trifluoroacetate]
NO

Also check CCOC(=O)C(Oc1ccc(NC(=O)c2cccc(NC(=N)N)c2)cc1)c1ccccc1 (centres unmarked) [Example 86C, trifluoroacetate Salt]
NO

Repeat for the following molecule: CC(C)COC(=O)NC(Cc1ccc(NC(=O)c2cccc(NC(=N)N)c2)cc1)C(=O)O (centres unmarked) [Example 53, trifluoroacetate Salt]
YES

// query: N=C(N)Nc1cccc(C(=O)Nc2ccc(CCC(=O)O)cc2O)c1 [Example 75, trifluoroacetate Salt]
NO

Request: CCOC(=O)NC(Cc1ccc(NC(=O)c2cccc(NC(=N)N)c2)cc1)C(=O)OCC (centres unmarked) [Example 38, trifluoroacetate Salt]
NO

Also need CC(C)(C)CC(=O)NC(Cc1ccc(NC(=O)c2cccc(NC(=N)N)c2)cc1)C(=O)O (centres unmarked) [Example 109, trifluoroacetate Salt] , thanks.
YES

Also N=C(N)Nc1cccc(C(=O)Nc2ccc(C(CC(=O)O)C(=O)NCC(=O)O)cc2)c1 (centres unmarked) [Example 73, trifluoroacetate Salt] ?
NO

* * *

Tested target: Human fibrinogen receptor (αIIbβ3) (Homo sapiens, UniProt P05106+P08514)
Construct: purified from outdated platelets
Test protocol: Purified IIb/IIIa receptor assay (solid phase receptor assay)
Condition info: inhibition of 50% of maximum binding of biotinylated vitronectin; highest concentration tested 1.0×10^-4 M
Protocol: The activity of the compounds of the present invention was tested in the following assays. Human fibrinogen receptor (αIIbβ3) was purified from outdated platelets. […] The purified human fibrinogen receptor (αIIbβ3) was diluted from stock solutions to 1.0 μg/mL in Tris-buffered saline containing 1.0 mM Ca^++, Mg^++, and Mn^++, pH 7.4 (TBS^+++). […] The data were analyzed using a macro written for use with the EXCEL™ spreadsheet program. […]
Where a name gives a salt, the structure may show the parent alone.
Property name: pIC50
Keep it numeric: pIC50 is minus log10 of the concentration in mol/L.

Human fibrinogen receptor (αIIbβ3) (Homo sapiens, UniProt P05106+P08514) / pIC50 / COc1cc(NC(=O)c2cccc(NC(=N)N)c2)ccc1OCC(=O)O [Example 118, trifluoroacetate Salt] : value?
7.27

Check CCCCS(=O)(=O)NC(Cc1ccc(OCc2cccc(NC(=N)N)c2)cc1)C(=O)O (stereo not shown) [Example 11, trifluoroacetate Salt monohydrate] too.
8.40

Entry CC(=O)NC(Cc1ccc(NC(=O)c2cccc(NC(=N)N)c2)cc1)C(=O)O (stereo not shown) [Example 35, trifluoroacetate Salt] please
6.83

Try CC(C)OC(=O)NC(Cc1ccc(NC(=O)c2ccc(Cl)c(NC(=N)N)c2)cc1)C(=O)O (stereo not shown) [Example 87] next.
7.07

* * *

Tested target: Human fibrinogen receptor (αIIbβ3) (Homo sapiens, UniProt P05106+P08514)
Construct: purified from outdated platelets
Test protocol: Purified IIb/IIIa receptor assay (solid phase receptor assay)
Condition info: inhibition of 50% of maximum binding of biotinylated vitronectin; highest concentration tested 1.0×10^-4 M
Experimental: The activity of the compounds of the present invention was tested in the following assays. Human fibrinogen receptor (αIIbβ3) was purified from outdated platelets. […] The purified human fibrinogen receptor (αIIbβ3) was diluted from stock solutions to 1.0 μg/mL in Tris-buffered saline containing 1.0 mM Ca^++, Mg^++, and Mn^++, pH 7.4 (TBS^+++). […] The data were analyzed using a macro written for use with the EXCEL™ spreadsheet program. […]
Structures can show the parent of a compound that is named as a salt.
Property name: pIC50
// field semantics: pIC50 = negative decimal log of concentration (mol/L)

What is its pIC50 for Human fibrinogen receptor (αIIbβ3) (Homo sapiens, UniProt P05106+P08514)? Entry: `N=C(N)Nc1cccc(C(=O)Nc2ccc(S(=O)(=O)CC(=O)O)cc2)c1`
6.32

Also N=C(N)Nc1cccc(C(=O)Nc2ccc(OCC(=O)O)cc2)c1 [Example 81, trifluoroacetate Salt] ?
6.89

Same again, this time with CC(C)(C)NC(=O)NC(Cc1ccc(NC(=O)c2cccc(NC(=N)N)c2)cc1)C(=O)O (stereo not shown) [Example 124, trifluoroacetate Salt]
6.55

Also N=C(N)Nc1cccc(C(=O)Nc2ccc(CC(NS(=O)(=O)/C=C/c3ccccc3)C(=O)O)cc2)c1 (stereo not shown) [Example 123, trifluoroacetate Salt] , if possible.
8.82

Would you kindly repeat that for CCOC(=O)NC(Cc1ccc(NC(=O)c2cccc(NC(=N)N)c2)cc1)C(=O)OCC (stereo not shown) [Example 38, trifluoroacetate Salt] ?
5.47

Item: CCOC(=O)CSc1ccc(NC(=O)c2cccc(NC(=N)N)c2)cc1 [Example 90, trifluoroacetate]
4.46

Check CC(CC(=O)OC(C)(C)C)c1ccc(NC(=O)c2cccc(NC(=N)N)c2)cc1 (stereo not shown) [Example 30, trifluoroacetate Salt] too.
5.49

Please give the result for CC(C)COC(=O)NC(Cc1ccc(NC(=O)c2cc(NC(=N)N)cc(C(F)(F)F)c2)cc1)C(=O)O (stereo not shown) [Example 2, trifluoroacetate Salt] too.
8.09

Same lookup for CCC(Cc1ccc(NC(=O)c2cccc(NC(=N)N)c2)cc1)C(=O)O (stereo not shown) [Example 129, trifluoroacetate Salt] , please.
5.28

Repeat with CC(C)OC(=O)NC(Cc1ccc(NC(=O)c2cccc(C(=O)NC(=N)N)c2)cc1)C(=O)O (stereo not shown) [Example 128, trifluoroacetate Salt]
7.70

Another compound to check: COC(=O)NC(Cc1ccc(NC(=O)c2cccc(NC(=N)N)c2)cc1)C(=O)O (stereo not shown) [Example 54, trifluoroacetate Salt]
7.44

Try this compound next: N=C(N)Nc1cccc(C(=O)Nc2ccc(C(CC(=O)O)C(=O)NCC(=O)O)cc2)c1 (stereo not shown) [Example 73, trifluoroacetate Salt]
7.40

Try N=C(N)Nc1cccc(C(=O)Nc2ccc(CCC(=O)O)cc2O)c1 [Example 75, trifluoroacetate Salt] next.
6.48

Would you kindly repeat that for CC(C)COC(=O)NC(Cc1ccc(NC(=O)c2cccc(NC(=N)N)c2)cc1)C(=O)O (stereo not shown) [Example 53, trifluoroacetate Salt] ?
7.82

Subsequent entry: COC(=O)[C@H](Cc1ccc(NC(=O)c2cccc(NC(=N)N)c2)cc1)NC(=O)OC(C)(C)C [Example 45, trifluoroacetate Salt]
6.22

# iterate: CC(C)(C)CC(=O)NC(Cc1ccc(NC(=O)c2cccc(NC(=N)N)c2)cc1)C(=O)O (stereo not shown) [Example 109, trifluoroacetate Salt]
6.95
